settings: in acetonitrile, 285.65 K
MEASUREMENT_NAME: solubility (mole fraction)
Just the number, please.

Challenge: Reported solubility (mole fraction) for Clc1ccc2c(c1)Nc1ccccc1S2 : what is it?
Response given: 0.00378

###

conditions: in acetone, 310.65 K
MEASUREMENT_NAME: solubility (mole fraction)
Just the number, please.

Challenge: Reported solubility (mole fraction) for Clc1ccc2c(c1)Nc1ccccc1S2 : what is it?
Response given: 0.0493

###

settings: in methanol, 293.15 K
MEASUREMENT_NAME: solubility (mole fraction)

Challenge: Reported solubility (mole fraction) for Clc1ccc2c(c1)Nc1ccccc1S2 : what is it?
Response given: 0.00545

Entry source: BigSolDB 2.1
